# study-system: T1, AAV5
# T1 construct: also called adeno-associated virus serotype 5
# measurement-description: SPR, AAV on CM5 chip;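 also: surface plasmon resonance with AAV amine-coupled to the chip as ligand, nanobodies injected as analyte over a concentration series, rate constants and affinity fitted from binding curves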
Field: label. Allowed values: criterion met (kon < 10000 M⁻¹ s⁻¹) or criterion not met (kon >= 10000 M⁻¹ s⁻¹).

[Q] kon under 10000 M⁻¹ s⁻¹? Item: A4-010 (VHH) VHH: VQLQESGGGLVQAGGSLRLSCAASGSIFSINSMGWYRQAPGKQRELVATVTRGGNTNYADSVKGRFTISRDNAKNTVYLQMNSLRPEDTAVYYCHVDEVRESSWTTSNLWGQGTQVTVSS
[A] criterion met

Next:
[Q] Find out if reported kon for A4-028 (VHH) VHH: VQLQESGGGLVQPGGSLRLSCAASGSNFSINTMGWYRQAPGKQRELVATVTRGGDTNYADSVKGRFTISRDNAKNTVYLQMNSLRPEDTAVYYCHVDEIRESSWTTSNLWGQGTQVTVSS is less than 10000 M⁻¹ s⁻¹
[A] criterion not met

[Q] Below 10000 M⁻¹ s⁻¹ on kon? Entry A4-046 (VHH) VHH: VQLQESGGGLVQPGGSLRLSCAASGSRFSINTMGWYRQAPGKQRELVATVTRGGSTNYADSVKGRFTISRDNAKNTVYLQMNSLRPEDTAVYYCHVDEVRQSSWTTSNLWGQGTQVTVSS
[A] criterion not met

[Q] is_below(kon, 10000 M⁻¹ s⁻¹) for A4-012 (VHH) VHH: VQLQESGGGAVQAGGSLRLSCAASGSIFSINSMGWYRQAPGKQRELVATVTRGGNTNYAGSVKGRFTISRDNAKNTVYLQMNSLRPEDTAVYYCHVDEVRESSWTTSNLWGQGTQVTVSS ?
[A] criterion not met
